# System: Candida albicans
# Assay Summary: Antibacterial activity against Fluconazole resistant Candida albicans DSY296 overexpressing multidrug transporter gene CDR1 and CDR2 and containing ERG11 G464S mutation by EUCAST standards based broth microdilution method
# Format: functional
Reported MIC is given for each of the following molecules.

Examples from the recorded data:
// query Request the reported MIC associated with CCC(C)n1ncn(-c2ccc(N3CCN(c4ccc(OCC5COC(Cn6cncn6)(c6ccc(Cl)cc6Cl)O5)cc4)CC3)cc2)c1=O (centres undefined) [ITRACONAZOLE]
// result 0.25 µg/mL

// query Thanks! And OC(Cn1cncn1)(Cn1cncn1)c1ccc(F)cc1F [FLUCONAZOLE] ?
// result 64 µg/mL

// query Again, but for CC[C@@H]([C@H](C)O)n1ncn(-c2ccc(N3CCN(c4ccc(OC[C@@H]5CO[C@@](Cn6cncn6)(c6ccc(F)cc6F)C5)cc4)CC3)cc2)c1=O [POSACONAZOLE]
// result 0.25 µg/mL

Kindly consider the entry below.
// query What does the data say about its MIC? Entry: C[C@@H](c1ncncc1F)[C@](O)(Cn1cncn1)c1ccc(F)cc1F [VORICONAZOLE]
// result 2 µg/mL

* * *

The following compounds are listed with their measured MIC values.
# Test system: Candida albicans
# Assay Summary: Antibacterial activity against azole-susceptible Candida albicans DSY294 by EUCAST standards based broth microdilution method
# Assay type: functional
Numbers only; they are read as µg/mL.

// known answers, use as guide
// query I'm curious: which MIC was measured for OC(Cn1cncn1)(Cn1cncn1)c1ccc(F)cc1F tested on Candida albicans?
// result 0.25

// query Queued: CC[C@@H]([C@H](C)O)n1ncn(-c2ccc(N3CCN(c4ccc(OC[C@@H]5CO[C@@](Cn6cncn6)(c6ccc(F)cc6F)C5)cc4)CC3)cc2)c1=O
// result 0.0312

// query Likewise for CCC(C)n1ncn(-c2ccc(N3CCN(c4ccc(OCC5COC(Cn6cncn6)(c6ccc(Cl)cc6Cl)O5)cc4)CC3)cc2)c1=O (centres undefined) ?
// result 0.0156

---
// query Write down the reported MIC of C[C@@H](c1ncncc1F)[C@](O)(Cn1cncn1)c1ccc(F)cc1F , test system: Candida albicans.
// result 0.0078

* * *

Item-by-item account of MIC
# Test system: Candida albicans
# Assay Summary: Antibacterial activity against Fluconazole resistant Candida albicans DSY3604 containing tac1delta/delta ERG11-1/ERG11-5 genotype by EUCAST standards based broth microdilution method
# Assay type: functional
Please respond with the number in µg/mL and leave the unit unwritten.

Observe how each entry below is paired with its result.
// query State the recorded MIC for this entry: CC[C@@H]([C@H](C)O)n1ncn(-c2ccc(N3CCN(c4ccc(OC[C@@H]5CO[C@@](Cn6cncn6)(c6ccc(F)cc6F)C5)cc4)CC3)cc2)c1=O [POSACONAZOLE]
// result 0.031

// query What about this compound? OC(Cn1cncn1)(Cn1cncn1)c1ccc(F)cc1F [FLUCONAZOLE]
// result 2

// query Then what about the compound C[C@@H](c1ncncc1F)[C@](O)(Cn1cncn1)c1ccc(F)cc1F [VORICONAZOLE] ?
// result 0.0625

Alright, here's another compound for you.
// query Need MIC of CCC(C)n1ncn(-c2ccc(N3CCN(c4ccc(OCC5COC(Cn6cncn6)(c6ccc(Cl)cc6Cl)O5)cc4)CC3)cc2)c1=O (centres undefined) [ITRACONAZOLE] , thanks.
// result 0.031
